Test: Cytotoxicity against golden hamster BSR-T7 cells assessed as reduction in cell viability measured after 18 to 24 hrs by MTT assay
Format: cell-based, Mesocricetus auratus, BSR-T7/5
Settings: bsr-t7/5, time 18-24 hrs

molecule | units symbol | limit qualifier | CC50
O=C(CCc1ccncc1)NC1CCN(C(=O)c2cc3ccccc3n2Cc2ccc(Cl)cc2)CC1 | µM | = | 66.7
O=C(c1cc2ccccc2n1Cc1ccc(Cl)cc1)N1CCC(C(=O)N2CCC(c3ccccc3)C2)CC1 (stereo not given) | µM | > | 100
O=C(c1cc2ccccc2n1Cc1ccc(Cl)cc1)N1CCC(C(=O)N2CCc3ccccc32)CC1 | µM | > | 100
O=C(NCCc1ccncc1)C1CCCN(C(=O)c2cc3ccccc3n2Cc2ccc(Cl)cc2)CC1 (stereo not given) | µM | = | 41.1
O=C(NCCCc1ccccc1)C1CCN(C(=O)c2cc3ccccc3n2Cc2ccc(Cl)cc2)CC1 | µM | > | 50
